# SYSTEM: Amyloid-beta precursor protein (Homo sapiens, UniProt P05067)
# Sequence (P05067 whole entry): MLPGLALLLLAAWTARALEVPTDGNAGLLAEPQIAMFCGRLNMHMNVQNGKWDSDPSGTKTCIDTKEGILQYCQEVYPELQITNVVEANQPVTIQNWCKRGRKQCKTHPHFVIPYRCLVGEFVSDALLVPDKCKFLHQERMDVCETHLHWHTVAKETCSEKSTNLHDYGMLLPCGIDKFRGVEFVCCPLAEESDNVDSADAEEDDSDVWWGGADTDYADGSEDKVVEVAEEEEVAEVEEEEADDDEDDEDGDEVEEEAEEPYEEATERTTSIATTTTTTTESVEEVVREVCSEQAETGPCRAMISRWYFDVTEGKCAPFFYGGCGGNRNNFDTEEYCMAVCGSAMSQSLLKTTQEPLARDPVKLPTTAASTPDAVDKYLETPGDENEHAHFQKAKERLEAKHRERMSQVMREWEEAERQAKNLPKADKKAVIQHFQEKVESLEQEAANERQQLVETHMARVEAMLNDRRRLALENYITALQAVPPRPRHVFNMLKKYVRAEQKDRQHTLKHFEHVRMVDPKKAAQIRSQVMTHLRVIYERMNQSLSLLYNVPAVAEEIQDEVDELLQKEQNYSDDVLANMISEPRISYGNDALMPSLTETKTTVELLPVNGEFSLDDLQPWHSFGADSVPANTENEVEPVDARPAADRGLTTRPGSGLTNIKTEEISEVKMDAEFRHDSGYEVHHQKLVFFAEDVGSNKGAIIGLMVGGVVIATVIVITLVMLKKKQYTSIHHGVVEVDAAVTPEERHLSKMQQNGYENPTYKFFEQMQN
# PROTOCOL_DETAILS: Inhibition of HFIP-pretreated amyloid beta (1 to 42) (unknown origin) self-induced aggregation after 48 hrs by thioflavin T-based fluorometric assay
pIC50: −log10 of the molar value.
Entry flag: satisfied if pIC50 reaches 5; not satisfied if it does not.

Solved entries:
- LINE_NOTATION: "O=C(CCc1ccccc1Cl)N1CCN(Cc2ccc(O)c3ncccc23)CC1"
  SYSTEM: "Amyloid-beta precursor protein (Homo sapiens, UniProt P05067)"
  CLASS_LABEL: "satisfied"
- LINE_NOTATION: "COc1ccc(CCC(=O)N2CCN(Cc3ccc(O)c4ncccc34)CC2)cc1"
  SYSTEM: "Amyloid-beta precursor protein (Homo sapiens, UniProt P05067)"
  CLASS_LABEL: "not satisfied"

Q) Tell me whether pIC50 is at least 5 here: O=C(CCc1ccc(F)cc1)N1CCN(Cc2ccc(O)c3ncccc23)CC1
A) not satisfied

Q) Does pIC50 meet or surpass 5 for Cc1ccccc1/C=C/C(=O)N1CCN(Cc2ccc(O)c3ncccc23)CC1 ?
A) not satisfied

Q) Reported pIC50 reaches at least 5 for O=C(/C=C/c1ccc(F)cc1F)N1CCN(Cc2ccc(O)c3ncccc23)CC1 ?
A) satisfied

Q) For this compound, is measured pIC50 5 or higher? COc1ccc(/C=C/C(=O)N2CCN(Cc3ccc(O)c4ncccc34)CC2)cc1OC
A) not satisfied

---

# PROTOCOL_DETAILS: Inhibition of Cu2+ - induced amyloid beta (1 to 42) (unknown origin) aggregation at 50 uM after 24 hrs by thioflavin T-based fluorometric assay relative to control
ASSAY_METRIC: inhibition (%)
Numbers only, in %.

- LINE_NOTATION: "O=C(CCc1ccccc1Cl)N1CCN(Cc2ccc(O)c3ncccc23)CC1"
  inhibition [%]: 88.9

Hey, can you go through the list below and give me inhibition for every item?
1. O=C(/C=C/c1ccc(F)cc1F)N1CCN(Cc2ccc(O)c3ncccc23)CC1
2. O=C(/C=C/c1ccccc1)N1CCN(Cc2ccc(O)c3ncccc23)CC1
3. Oc1c(I)cc(Cl)c2cccnc12

A)
1: 62.1; 2: 69.8; 3: 61.4

---

# PROTOCOL_DETAILS: in vitro
# EXPERIMENTAL_PARAMETERS: PAMPA
# Description: Permeability of the compound at 100 ug/ml after 10 hrs by PAMPA
ASSAY_METRIC: Papp at 10 h, 100 ug/ml (×10⁻⁶ cm/s)
Give bare numbers, in ×10⁻⁶ cm/s.

Example entries begin here.
- COMPOUND: "COc1ccc(/C=C/C(=O)N2CCN(Cc3ccc(O)c4ncccc34)CC2)cc1OC"
  Papp at 10 h, 100 ug/ml (×10⁻⁶ cm/s): 8.82
- COMPOUND: "O=C(/C=C/c1ccccc1Cl)N1CCN(Cc2ccc(O)c3ncccc23)CC1"
  Papp at 10 h, 100 ug/ml (×10⁻⁶ cm/s): 6.83
- COMPOUND: "C[C@]12CC[C@@H]3c4ccc(O)cc4CC[C@H]3[C@@H]1CC[C@@H]2O [ESTRADIOL]"
  Papp at 10 h, 100 ug/ml (×10⁻⁶ cm/s): 9.17

Hi! Can you tell me Papp at 10 h, 100 ug/ml for each of these compounds?
1. COc1ccc(CCC(=O)N2CCN(Cc3ccc(O)c4ncccc34)CC2)cc1OC
2. O=C(/C=C/c1ccc(F)cc1F)N1CCN(Cc2ccc(O)c3ncccc23)CC1
3. O=C(CCc1ccccc1Cl)N1CCN(Cc2ccc(O)c3ncccc23)CC1
4. CCn1cc(C(=O)O)c(=O)c2cc(F)c(N3CCNC(C)C3)c(F)c21 (configuration not stated) [LOMEFLOXACIN]

A)
1: 9.67; 2: 18.6; 3: 11.1; 4: 1.59

---

# PROTOCOL_DETAILS: Inhibition of Zn2+ - induced amyloid beta (1 to 42) (unknown origin) aggregation at 50 uM after 24 hrs by thioflavin T-based fluorometric assay relative to control
ASSAY_METRIC: inhibition (%)
Numbers only, in %.

The following molecules have reported results that may help.
- LINE_NOTATION: "O=C(/C=C/c1ccccc1)N1CCN(Cc2ccc(O)c3ncccc23)CC1"
  inhibition, %: 66.5
- LINE_NOTATION: "O=C(/C=C/c1ccc(F)cc1F)N1CCN(Cc2ccc(O)c3ncccc23)CC1"
  inhibition, %: 52
- LINE_NOTATION: "O=C(CCc1ccccc1Cl)N1CCN(Cc2ccc(O)c3ncccc23)CC1"
  inhibition, %: 73.3

With those in mind, consider the next molecule.
Q) Given the molecule Oc1c(I)cc(Cl)c2cccnc12 , what is its reported inhibition?
A) 55.3

---

# PROTOCOL_DETAILS: Antioxidant activity assessed as trolox equivalents of AAPH radical scavenging activity at 10 uM preincubated for 15 mins followed by AAPH addition measured every minute for 120 mins by ORAC-FL assay
# Type: functional
Where Activity equals or exceeds 1 equiv, the correct label is t; where it does not, the label is f.

// known answers, use as guide
- LINE_NOTATION: "O=C(CCc1ccc(F)cc1)N1CCN(Cc2ccc(O)c3ncccc23)CC1"
  CLASS_LABEL: "t"
- LINE_NOTATION: "O=C(O)/C=C/c1ccccc1"
  CLASS_LABEL: "t"
- LINE_NOTATION: "O=C(/C=C/c1ccc(Cl)cc1)N1CCN(Cc2ccc(O)c3ncccc23)CC1"
  CLASS_LABEL: "f"
- LINE_NOTATION: "Cc1ccccc1/C=C/C(=O)N1CCN(Cc2ccc(O)c3ncccc23)CC1"
  CLASS_LABEL: "t"
- LINE_NOTATION: "O=C(CCc1ccccc1)N1CCN(Cc2ccc(O)c3ncccc23)CC1"
  CLASS_LABEL: "t"
- LINE_NOTATION: "Oc1ccc(/C=C/c2cc(O)cc(O)c2)cc1"
  CLASS_LABEL: "t"

Q) Decide: is the reported value of Activity for O=C(/C=C/c1ccc(F)cc1F)N1CCN(Cc2ccc(O)c3ncccc23)CC1 equal to or greater than 1 equiv?
A) t

Q) Record COc1ccc(/C=C/C(=O)N2CCN(Cc3ccc(O)c4ncccc34)CC2)cc1OC ; criterion: Activity no lower than 1 equiv. Met?
A) t

Q) Determine whether this molecule has Activity no lower than 1 equiv: O=C(CCc1ccccc1Cl)N1CCN(Cc2ccc(O)c3ncccc23)CC1
A) t

---

# SYSTEM: Amyloid-beta precursor protein (Homo sapiens)
# PROTOCOL_DETAILS: Inhibition of HFIP-pretreated amyloid beta (1 to 42) (unknown origin) self-induced aggregation at 10 uM after 48 hrs by thioflavin T-based fluorometric assay relative to control
For each of the molecules below, state its inhibition.
Give bare numbers, in %.

Use these answered entries as a reference point.
- LINE_NOTATION: "O=C(/C=C/c1ccccc1Cl)N1CCN(Cc2ccc(O)c3ncccc23)CC1"
  inhibition, %: 61.9
- LINE_NOTATION: "COc1ccc(CCC(=O)N2CCN(Cc3ccc(O)c4ncccc34)CC2)cc1OC"
  inhibition, %: 18.3
- LINE_NOTATION: "O=C(CCc1ccc(Cl)cc1)N1CCN(Cc2ccc(O)c3ncccc23)CC1"
  inhibition, %: 15.6
- LINE_NOTATION: "COc1ccc(CCC(=O)N2CCN(Cc3ccc(O)c4ncccc34)CC2)cc1"
  inhibition, %: 34.3
- LINE_NOTATION: "O=C(/C=C/c1ccc(F)cc1)N1CCN(Cc2ccc(O)c3ncccc23)CC1"
  inhibition, %: 49.9

Could you tell me inhibition for each of these molecules? They are listed below.
1. Cc1ccccc1/C=C/C(=O)N1CCN(Cc2ccc(O)c3ncccc23)CC1
2. COc1ccc(/C=C/C(=O)N2CCN(Cc3ccc(O)c4ncccc34)CC2)cc1OC
3. O=C(CCc1ccccc1)N1CCN(Cc2ccc(O)c3ncccc23)CC1
4. Oc1c(I)cc(Cl)c2cccnc12
5. COc1ccc(/C=C/C(=O)N2CCN(Cc3ccc(O)c4ncccc34)CC2)cc1
6. O=C(/C=C/c1ccc(Br)cc1)N1CCN(Cc2ccc(O)c3ncccc23)CC1
7. O=C(CCc1ccccc1Cl)N1CCN(Cc2ccc(O)c3ncccc23)CC1
8. O=C(/C=C/c1ccc([N+](=O)[O-])cc1)N1CCN(Cc2ccc(O)c3ncccc23)CC1

A)
26.1
29.4
28.1
25.7
12.3
8.65
65.8
13.2

For every item below, please supply its inhibition.
1. O=C(/C=C/c1ccc(F)cc1F)N1CCN(Cc2ccc(O)c3ncccc23)CC1
2. O=C(/C=C/c1ccccc1)N1CCN(Cc2ccc(O)c3ncccc23)CC1

A)
1. 73.4
2. 55

Record inhibition per entry; entries follow.
1. N#Cc1ccc(/C=C/C(=O)N2CCN(Cc3ccc(O)c4ncccc34)CC2)cc1
2. O=C(CCc1ccc(F)cc1)N1CCN(Cc2ccc(O)c3ncccc23)CC1
3. O=C(/C=C/c1ccc(Cl)cc1)N1CCN(Cc2ccc(O)c3ncccc23)CC1

A)
[27.8, 32.5, 25.7]
